Answer each item with its documented viability at 1 µM.
assay: Cytotoxicity against human Raji cells assessed as viability at 1 uM in presence of TPA; type: cell-based; conditions: read-out: Activity
Numbers only, in %.

• CO[C@@H](CC[C@H](C)[C@H]1O[C@@]23C[C@H](OC(=O)C[C@H]([C@@H](C)O)OC(=O)C[C@](O)(O2)[C@H](C)CC3(C)C)[C@@H]1C)c1cc(O)ccc1Br = 40

Need viability at 1 µM for each of these compounds.
1. CC1(C)CC[C@@H]2CC(=O)O[C@@H](CO)CC(=O)O[C@@H]3C[C@@H](CCCCc4cccc(O)c4)O[C@@]1(C3)O2
2. CCC/C=C/C=C/C(=O)O[C@H]1/C(=C/C(=O)OC)C[C@H]2C[C@H]([C@@H](C)O)OC(=O)C[C@H](O)C[C@@H]3C[C@H](OC(C)=O)C(C)(C)[C@](O)(C[C@@H]4C/C(=C/C(=O)OC)C[C@H](/C=C/C(C)(C)[C@]1(O)O2)O4)O3
3. CC1(C)CC[C@@H]2CC(=O)O[C@@H](CO)CC(=O)O[C@@H]3C[C@@H](CCCCc4ccccc4)O[C@@]1(C3)O2

60
40
60

----------
assay: Cytotoxicity against human Raji cells assessed as viability at 10^-7 M in presence of TPA; type: cell-based; details: read-out: Activity
parameter: viability at 0.1 µM (%)
Give bare numbers, in %.

Take a look at these entries with their results.
* CO[C@@H](CC[C@H](C)[C@H]1O[C@@]23C[C@H](OC(=O)C[C@H]([C@@H](C)O)OC(=O)C[C@](O)(O2)[C@H](C)CC3(C)C)[C@@H]1C)c1cc(O)ccc1Br | 50
* CC1(C)CC[C@@H]2CC(=O)O[C@@H](CO)CC(=O)O[C@@H]3C[C@@H](CCCCc4cccc(O)c4)O[C@@]1(C3)O2 | 60
* CCC/C=C/C=C/C(=O)O[C@H]1/C(=C/C(=O)OC)C[C@H]2C[C@H]([C@@H](C)O)OC(=O)C[C@H](O)C[C@@H]3C[C@H](OC(C)=O)C(C)(C)[C@](O)(C[C@@H]4C/C(=C/C(=O)OC)C[C@H](/C=C/C(C)(C)[C@]1(O)O2)O4)O3 | 60

Fill in reported viability at 0.1 µM for this entry: CC1(C)CC[C@@H]2CC(=O)O[C@@H](CO)CC(=O)O[C@@H]3C[C@@H](CCCCc4ccccc4)O[C@@]1(C3)O2
60

----------
Answer each item with its documented pKi.
target: Protein kinase C delta type (Homo sapiens, UniProt Q05655); test: Inhibition of [3H]PDBu binding to PKC delta C1A peptide
Sequence (Q05655 whole entry): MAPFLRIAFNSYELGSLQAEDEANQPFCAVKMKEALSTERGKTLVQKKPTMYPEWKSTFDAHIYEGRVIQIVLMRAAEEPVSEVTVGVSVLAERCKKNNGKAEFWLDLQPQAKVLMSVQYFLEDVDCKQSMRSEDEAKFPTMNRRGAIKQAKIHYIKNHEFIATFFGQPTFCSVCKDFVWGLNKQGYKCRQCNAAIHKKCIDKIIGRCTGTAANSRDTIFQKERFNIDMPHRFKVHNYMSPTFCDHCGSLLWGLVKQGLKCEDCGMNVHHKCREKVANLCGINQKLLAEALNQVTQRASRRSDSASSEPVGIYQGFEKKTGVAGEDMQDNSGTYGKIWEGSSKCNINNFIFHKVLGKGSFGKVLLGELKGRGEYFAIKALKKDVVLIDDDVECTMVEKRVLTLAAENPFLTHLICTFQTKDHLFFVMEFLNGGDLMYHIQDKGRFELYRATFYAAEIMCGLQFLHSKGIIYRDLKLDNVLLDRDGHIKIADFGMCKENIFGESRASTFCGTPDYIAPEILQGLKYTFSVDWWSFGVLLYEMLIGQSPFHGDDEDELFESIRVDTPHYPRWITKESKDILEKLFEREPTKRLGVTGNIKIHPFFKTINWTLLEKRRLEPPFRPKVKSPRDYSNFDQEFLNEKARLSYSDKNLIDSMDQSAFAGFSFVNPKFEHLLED
One number for each entry, as −log10 of the molar value.

Take a look at these entries with their results.
* CC1(C)CC[C@@H]2CC(=O)O[C@@H](CO)CC(=O)O[C@@H]3C[C@@H](CCCCc4cccc(O)c4)O[C@@]1(C3)O2 | 6.85
* CO[C@@H](CC[C@H](C)[C@H]1O[C@@]23C[C@H](OC(=O)C[C@H]([C@@H](C)O)OC(=O)C[C@](O)(O2)[C@H](C)CC3(C)C)[C@@H]1C)c1cc(O)ccc1Br | 7.92
* O=C1C[C@H](CO)OC(=O)C[C@H]2CCC[C@]3(C[C@@H](C[C@@H](CCCCc4ccccc4)O3)O1)O2 | 5.17

In the following, a different molecule is considered.
Fill in reported pKi for this entry: CC1(C)CC[C@@H]2CC(=O)O[C@@H](CO)CC(=O)O[C@@H]3C[C@@H](CCCCc4ccccc4)O[C@@]1(C3)O2
6.89

----------
Below are pKi values measured for Protein kinase C theta type (Homo sapiens, UniProt Q04759).
Answers are plain numbers, as −log10 of the molar value.

Take a look at these entries with their results.
• CO[C@@H](CC[C@H](C)[C@H]1O[C@@]23C[C@H](OC(=O)C[C@H]([C@@H](C)O)OC(=O)C[C@](O)(O2)[C@H](C)CC3(C)C)[C@@H]1C)c1cc(O)ccc1Br = 9.80
• CC1(C)CC[C@@H]2CC(=O)O[C@@H](CO)CC(=O)O[C@@H]3C[C@@H](CCCCc4ccccc4)O[C@@]1(C3)O2 = 8.09
• O=C1C[C@H](CO)OC(=O)C[C@H]2CCC[C@]3(C[C@@H](C[C@@H](CCCCc4ccccc4)O3)O1)O2 = 6.77

In the following, a different compound is considered.
Fill in reported pKi for this entry: CC1(C)CC[C@@H]2CC(=O)O[C@@H](CO)CC(=O)O[C@@H]3C[C@@H](CCCCc4cccc(O)c4)O[C@@]1(C3)O2
8.40

----------
target: Protein kinase C gamma type (Homo sapiens, UniProt P05129); assay: Inhibition of [3H]PDBu binding to PKC gamma C1A peptide
parameter: pKi
One number for each entry, as −log10 of the molar value.

• CC1(C)CC[C@@H]2CC(=O)O[C@@H](CO)CC(=O)O[C@@H]3C[C@@H](CCCCc4cccc(O)c4)O[C@@]1(C3)O2 = 7.41

Need pKi for each of these compounds.
1. O=C1C[C@H](CO)OC(=O)C[C@H]2CCC[C@]3(C[C@@H](C[C@@H](CCCCc4ccccc4)O3)O1)O2
2. CO[C@@H](CC[C@H](C)[C@H]1O[C@@]23C[C@H](OC(=O)C[C@H]([C@@H](C)O)OC(=O)C[C@](O)(O2)[C@H](C)CC3(C)C)[C@@H]1C)c1cc(O)ccc1Br [APLYSIATOXIN]
3. CC1(C)CC[C@@H]2CC(=O)O[C@@H](CO)CC(=O)O[C@@H]3C[C@@H](CCCCc4ccccc4)O[C@@]1(C3)O2

5.80
9.20
7.10

----------
Target: Protein kinase C epsilon type (Homo sapiens)
Sequence (Q02156 whole entry): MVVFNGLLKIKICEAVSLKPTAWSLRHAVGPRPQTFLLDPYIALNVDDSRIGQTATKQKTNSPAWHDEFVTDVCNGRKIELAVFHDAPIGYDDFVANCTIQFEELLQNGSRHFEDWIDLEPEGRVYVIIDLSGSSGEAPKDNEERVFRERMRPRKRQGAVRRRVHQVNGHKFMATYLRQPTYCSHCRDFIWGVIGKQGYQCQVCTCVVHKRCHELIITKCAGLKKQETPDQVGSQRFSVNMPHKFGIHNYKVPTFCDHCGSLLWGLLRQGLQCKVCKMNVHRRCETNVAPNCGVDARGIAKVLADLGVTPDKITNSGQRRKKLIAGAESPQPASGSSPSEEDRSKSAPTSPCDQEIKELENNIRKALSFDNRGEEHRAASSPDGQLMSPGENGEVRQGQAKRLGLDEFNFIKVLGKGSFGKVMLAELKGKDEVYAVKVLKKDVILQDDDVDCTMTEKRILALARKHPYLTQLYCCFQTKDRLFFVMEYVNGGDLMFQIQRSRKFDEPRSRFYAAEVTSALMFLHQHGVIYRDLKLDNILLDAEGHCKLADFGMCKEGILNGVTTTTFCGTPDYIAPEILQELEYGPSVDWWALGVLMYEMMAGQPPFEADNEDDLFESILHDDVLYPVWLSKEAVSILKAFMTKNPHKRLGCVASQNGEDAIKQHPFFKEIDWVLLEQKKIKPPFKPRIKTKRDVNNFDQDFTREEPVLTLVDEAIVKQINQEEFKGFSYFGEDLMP
parameter: Ki (nM)
Give bare numbers, in nM.

Take a look at these entries with their results.
• O=C1C[C@H](CO)OC(=O)C[C@H]2CCC[C@]3(C[C@@H](C[C@@H](CCCCc4ccccc4)O3)O1)O2 = 820
• CC1(C)CC[C@@H]2CC(=O)O[C@@H](CO)CC(=O)O[C@@H]3C[C@@H](CCCCc4cccc(O)c4)O[C@@]1(C3)O2 = 25
• CO[C@@H](CC[C@H](C)[C@H]1O[C@@]23C[C@H](OC(=O)C[C@H]([C@@H](C)O)OC(=O)C[C@](O)(O2)[C@H](C)CC3(C)C)[C@@H]1C)c1cc(O)ccc1Br [APLYSIATOXIN] = 1.3

In the following, a different molecule is considered.
Fill in reported Ki for this entry: CC1(C)CC[C@@H]2CC(=O)O[C@@H](CO)CC(=O)O[C@@H]3C[C@@H](CCCCc4ccccc4)O[C@@]1(C3)O2
37

----------
test: Cytotoxicity against human Raji cells assessed as viability at 1 uM; assay type: cell-based; details: read-out: Activity
Answer each item with its documented viability at 1 µM.

Take a look at these entries with their results.
• CC1(C)CC[C@@H]2CC(=O)O[C@@H](CO)CC(=O)O[C@@H]3C[C@@H](CCCCc4cccc(O)c4)O[C@@]1(C3)O2 = 60%
• CCC/C=C/C=C/C(=O)O[C@H]1/C(=C/C(=O)OC)C[C@H]2C[C@H]([C@@H](C)O)OC(=O)C[C@H](O)C[C@@H]3C[C@H](OC(C)=O)C(C)(C)[C@](O)(C[C@@H]4C/C(=C/C(=O)OC)C[C@H](/C=C/C(C)(C)[C@]1(O)O2)O4)O3 = 40%
• CO[C@@H](CC[C@H](C)[C@H]1O[C@@]23C[C@H](OC(=O)C[C@H]([C@@H](C)O)OC(=O)C[C@](O)(O2)[C@H](C)CC3(C)C)[C@@H]1C)c1cc(O)ccc1Br = 40%

Need viability at 1 µM for each of these compounds.
1. CC1(C)CC[C@@H]2CC(=O)O[C@@H](CO)CC(=O)O[C@@H]3C[C@@H](CCCCc4ccccc4)O[C@@]1(C3)O2
2. CCCCCCCCCCCCCC(=O)O[C@@H]1[C@@H](C)[C@@]2(O)[C@@H](C=C(CO)C[C@]3(O)C(=O)C(C)=C[C@@H]23)[C@@H]2C(C)(C)[C@]12OC(C)=O [PHORBOL MYRISTATE ACETATE]

60%
50%
